Parameter inhibition: see the listing below.
- measurement_protocol: PhoP regulon inhibitors, Salmonella typhi PhoP promoter GFP reporter, confirmatory (AID 1850);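 further: 0% = induced wells with vehicle and 100% = uninduced wells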
- run_parameters: fluorescence, 4 h, at 50 µM, stronger effect = higher value
The whole screen tested about 310,000 compounds, of which about 1,000 (0.32%) were called active. The list is a sample of the results. Results with a measured potency or affinity are listed apart.
Value expressed in %; do not type the unit.

Worked cases, answers included:
stdin: # get_value(readout='inhibition', item= `CCOc1ccccc1OCc1nn2c(-c3ccc(C)cc3)nnc2s1` )
stdout: 3

stdin: Value lookup for inhibition; key = `CCCCNc1nnc(SCC(=O)N2CCN(S(=O)(=O)c3ccc4ccccc4c3)CC2)s1`
stdout: -3.79

stdin: Give its inhibition value. Item: O=C(c1ccc(Cl)cc1)[C@@H]1[C@@H]2C(=O)N(c3ccc(Cl)cc3)C(=O)[C@@H]2C2c3ccccc3C=NN21 (some centres undefined)
stdout: -0.55

stdin: Quick check: inhibition of `COc1cc2nc(Nc3ccc(C)c(C)c3)nc(N)c2cc1OC` ?
stdout: -4.96

stdin: For `C=CCNC(=O)c1cccc(OC2CCN(CC(C)(C)C)CC2)c1` , what is its reported inhibition?
stdout: -1.47

stdin: Need inhibition of CC(Cc1ccccc1)NC(=O)Cc1ccc([N+](=O)[O-])cc1 (centres undefined) , thanks.
stdout: -4.09

stdin: Form field: reported inhibition of `O=C(Cc1cccs1)Nc1cccc([N+](=O)[O-])c1`
stdout: 0.05

stdin: Consider the molecule `Oc1ccc(C23CC4CC(CC(C4)C2)C3)cc1O` and give its measured inhibition.
stdout: 0.69

Alright, here's another molecule for you.
stdin: So what's the measured inhibition for this one? `Cc1ccc(C(C)C)c(OCc2nn(CC(=O)c3ccc(Cl)cc3)c3[n+]2CCCCC3)c1`
stdout: -26.5

* * *

- measurement_protocol: PhoP regulon inhibitors, Salmonella typhi PhoP promoter GFP reporter, confirmatory (AID 1850);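 further: 0% = induced wells with vehicle and 100% = uninduced wells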
- run_parameters: fluorescence, 4 h, at 50 µM, stronger effect = higher value
About 1,000 (0.32%) of roughly 310,000 compounds were called active. A selection follows. Entries with a potency or affinity are not part of this list.
A collection of molecules and their measured inhibition

Example results:
stdin: Could you tell me which inhibition is on file for COc1ccc(/C=C2\CCCC3C2=NC(=S)NC3c2ccc(OC)cc2)cc1 (centres undefined) ?
stdout: -6.47% (inactive)

stdin: Which inhibition value is on record for `CCOc1cc(CN2CCc3c([nH]c4ccccc34)C2)ccc1OC` ?
stdout: -1.33% (inactive)

stdin: I would be grateful if you could share the reported inhibition for `CCc1ccc(CNCCc2ccccc2F)cc1` .
stdout: 19.3% (inactive)

Now consider a different molecule.
stdin: Which inhibition value belongs to `Cc1cc(C)c2c3c(sc2n1)C(=O)N(C)CC(=O)N3` ?
stdout: -4.13% (inactive)
